# System: MRC-5 (human embryonic lung fibroblast) cells
# Procedure details: Drug toxicity in MRC-5 cells (CellTiter 96)
# Type: cell-based
# Test context: six day incubation, read-out: TC50 (the source's name)
Experimental readout: CC50 (µM)
Field: numeric (µM). Do not append units.

q: Can you look up the measured CC50 of CC(=NNC(=N)N)c1cc(NC(=O)CCCCCCCCC(=O)Nc2cc(C(C)=NNC(=N)N)cc(C(C)=NNC(=N)N)c2)cc(C(C)=NNC(=N)N)c1 for me?
a: 13.6

====

# System: HepG2 cells
# Assay type: cell-based, human
# Test context: Lamivudine-resistant HBV experiment, read-out: TC50 (the source's name)
Experimental readout: CC50
Number first, unit second.

q: State its CC50 on HepG2 cells: CC(=NNC(=N)N)c1cc(NC(=O)CCCCCCCCC(=O)Nc2cc(C(C)=NNC(=N)N)cc(C(C)=NNC(=N)N)c2)cc(C(C)=NNC(=N)N)c1
a: 24.7 µM

====

# Tested on: HepG2-2.2.15 cells
# Procedure details: Cell viability of HepG2-2.2.15 cells (dye uptake)
# Format: cell-based, human
# Test context: inhibits cell growth by 50%, read-out: TC50 (the source's name)
# Protocol: Human HepG2-2.2.15 cells (ATCC Cat. No. CRL-11997), chronically infected with HBV, are plated in 96-well microtiter plates in DMEM medium supplemented with fetal bovine serum. […] The cell viability is evaluated by a dye uptake procedure (Promega's Cell Titer Aqueous One Solution). […]
Experimental readout: CC50

q: // lookup CC50 for CC(=NNC(=N)N)c1cc(NC(=O)CCCCCCCCC(=O)Nc2cc(C(C)=NNC(=N)N)cc(C(C)=NNC(=N)N)c2)cc(C(C)=NNC(=N)N)c1
a: > 20 µM

====

# System: HBV
# Procedure details: HBV replication in chronically infected HepG2 2.2.15 cells (TaqMan PCR of HBV DNA)
# Assay type: cell-based, Hepatitis B virus
# Test context: chronically HBV-infected HepG2 2.2.15 cells, six days; read-out: IC50 (μM) Virion-DNA
Experimental readout: IC50

q: API: value(readout=IC50, system=HBV) for record CC(=NNC(=N)N)c1cc(NC(=O)CCCCCCCCC(=O)Nc2cc(C(C)=NNC(=N)N)cc(C(C)=NNC(=N)N)c2)cc(C(C)=NNC(=N)N)c1 [Compound 4]
a: 3.19 µM

====

Experimental readout: CC50 (µM)
// return numeric value only (unit: µM, not printed)

q: Query for Vero cells: what CC50 does the record show for CC(=NNC(=N)N)c1cc(NC(=O)CCCCCCCCC(=O)Nc2cc(C(C)=NNC(=N)N)cc(C(C)=NNC(=N)N)c2)cc(C(C)=NNC(=N)N)c1 ?
a: 8.68

Cited source: patent US20030203969A1
